Give inhibition at 1 µM for every item shown.
- Target of assay: human CCR5 (Homo sapiens)
- Construct: expressed in transfected cells
- Sequence (P51681 whole entry): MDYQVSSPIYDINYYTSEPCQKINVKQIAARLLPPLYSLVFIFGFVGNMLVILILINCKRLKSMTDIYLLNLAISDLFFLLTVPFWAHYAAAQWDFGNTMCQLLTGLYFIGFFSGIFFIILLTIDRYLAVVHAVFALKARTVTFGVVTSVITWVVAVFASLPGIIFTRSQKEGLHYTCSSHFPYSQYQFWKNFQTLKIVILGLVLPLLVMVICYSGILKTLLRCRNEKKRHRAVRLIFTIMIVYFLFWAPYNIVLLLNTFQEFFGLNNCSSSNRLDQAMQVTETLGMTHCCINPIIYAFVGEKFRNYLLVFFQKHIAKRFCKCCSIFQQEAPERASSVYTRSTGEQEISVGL
- Protocol description: Inhibition of [125I]-RANTES binding to CHO/CCR5 cells (CCR5 antagonistic activity)
- Measurement conditions: 1.0 μM test compound, 100 pM [125I]-RANTES, room temperature, 40 minutes, read-out: Inhibition Rate (%) at 1.0 μM
Where a name gives a salt, the structure may show the parent alone.
Give bare numbers, in %.

Ask | // inhibition at 1 µM lookup, key: O=C(Nc1ccc(Cl)cc1)N(CCCN1CCC(Cc2ccc(S(=O)(=O)N3CCOCC3)cc2)CC1)c1ccccc1 [Example 71, hydrochloride]
Reply | 98

Ask | // inhibition at 1 µM lookup, key: "CCCNC(=O)N(CCCN1CCC(Cc2ccccc2)CC1)c1ccccc1"
Reply | 92

Ask | // inhibition at 1 µM lookup, key: "O=C(Nc1cccc2ccccc12)N(CCCN1CCC(Cc2ccccc2)CC1)c1ccccc1"
Reply | 67

Ask | // inhibition at 1 µM lookup, key: Cc1ccc(N(CCCN2CCC(Cc3ccccc3)CC2)C(=O)Nc2ccc(Cl)cc2)cc1 [Example 10, hydrochloride]
Reply | 100

Ask | // inhibition at 1 µM lookup, key: O=C(Nc1ccccc1)N(CCCN1CCC(Cc2ccccc2)CC1)c1ccccc1 [Example 1, hydrochloride]
Reply | 96

Now turn to the next compound.
Ask | // inhibition at 1 µM lookup, key: "O=C(Nc1ccc(Cl)cc1)N(CCCN1CCC(Cc2ccc(F)cc2)CC1)c1ccc(Cl)c(Cl)c1"
Reply | 92
